tested on: Plasmodium berghei; assay: Screen against P. berghei liver stage (PbLuc), transformed with Luciferase, at 10uM; format: functional, HepG2; conditions: tested at 10 uM
Among all 69,000 compounds or so, about 8,600 (12%) showed an effect of 50% or more. Only a selection was taken, and strong results are over-represented in it overall.
Here, each record is paired with measured INHIBITION data.
The answer is to be given in %; state only the numeric part.

1) CCCNC(=O)COc1cc(C)c2c(C)nn(-c3ccccc3)c2n1	31.3

State the recorded INHIBITION for this entry: Cc1cnn(CC(=O)N2CCCN(c3nc(C)cs3)CC2)c1
35.9

State the recorded INHIBITION for this entry: CCn1cc(CN2CCCN(C(=O)C3(C#N)CCCCC3)CC2)cn1
45.2

State the recorded INHIBITION for this entry: Cc1csc(N2CCN(C(=O)Cc3ccc(C)s3)CC2)n1
-23.8

State the recorded INHIBITION for this entry: CC(C)(C)CN1CCCC(c2nccnc2Nc2cnccn2)C1 (centres undefined)
51.7

State the recorded INHIBITION for this entry: Cc1nnc(-c2cccc(C#N)c2)n1C1CCCN(C(C)C)C1=O (centres undefined)
-18.9

State the recorded INHIBITION for this entry: CCN(C(=O)CCCOc1ccccc1F)c1ccncc1
-26.8

State the recorded INHIBITION for this entry: CCc1cc(N(C)Cc2[nH]nc3c2CCC3)nc(N2CCOCC2)n1
51.1

State the recorded INHIBITION for this entry: CNc1nc(C2CCCN2)nc2c1CCN(S(=O)(=O)C1CCCCC1)C2 (centres undefined)
-44.8

State the recorded INHIBITION for this entry: CCn1cc(CN2CCN(C(=O)N3CCOCC3)CC2)cn1
43.4

State the recorded INHIBITION for this entry: Cc1n[nH]cc1CNCC1(c2cccc(F)c2)CCOCC1
-11.9

State the recorded INHIBITION for this entry: CN1C(=O)CC[C@@H]2N(C(=O)CCc3cccnc3)CCCC[C@@]21C
44.3
